Reported values of growth for individual entries
system: 786-0 renal; experiment: NCI-60 one-dose screen, 48 h (100 = growth as untreated, 0 = no growth, -100 = all killed); settings: 10 µM unless noted
About 83,000 compounds went through this panel and 20% of them were active in at least one assay; those are over-represented in the sample as a whole.
REPORTED_METRIC: growth (%)

> print(dat)
                                   compound  tested.system  value.observed
1  O=C(Nc1ncc(Cc2ccccc2Cl)s1)c1ccc2c(c1)OCCO2    786-0 renal            41.2
2   Cc1ccc(S(=O)(=O)N(CCC(=O)O)c2ccccc2)cc1    786-0 renal            94.3
3  CN(C)CC1C(=O)O[C@H]2[C@H]1CC/C(COC(=O)NCc1ccc(Cn3c(=O)sn(CCCI)c3=O)cc1)=C\CC[C@@]1(C)O[C@@H]21 (some centres undefined)    786-0 renal           -73.2
4  CCn1c2ccccc2c2cc(C(O)c3cccc4ncccc34)ccc21 (centres undefined)    786-0 renal            6.42

###

test system: SF-295 CNS; assay: NCI-60 one-dose screen, 48 h (100 = growth as untreated, 0 = no growth, -100 = all killed); conditions: 10 µM unless noted
Compounds without any hit were thinned out: in the full panel of roughly 83,000, 20% have a hit. Activity calls are given as the source filed them. Rule for the calls: active = growth percent below 10; inactive = the rest.
Reported values of growth for individual entries
REPORTED_METRIC: growth

> print(dat)
                                   compound  reported.metric    value.observed
1  C=CCOC(=O)C1=C(C)N(CC)C(=O)N(CC)C1c1c(Cl)n(C)c2ccccc12 (stereo not drawn)           growth  69.3% (inactive)
2  COc1ccc(S(=O)(=O)N(C)c2oc(-c3ccc(Cl)cc3)nc2C#N)cc1           growth  91.9% (inactive)
3  O=C1c2c(c3c4cccnc4[nH]c3c3ccc4ccccc4c23)C(=O)N1O           growth  91.8% (inactive)

###

tested on: PC-3 prostate; assay: NCI-60 one-dose screen, 48 h; settings: 10 µM unless noted
About 83,000 compounds went through this panel and 20% of them were active in at least one assay; those are over-represented in the sample as a whole. Activity calls are given as the source filed them. Rule for the calls: active = growth percent below 10; inactive = the rest.
Outcomes: yes (active), no (inactive)

COMPOUND	TESTED_SYSTEM	GROUP
CCOC(=O)CC1CSC(N/N=C(/C)c2cccc(C(F)(F)F)c2)=N1 (stereo not given)	PC-3 prostate	no
COc1ccc(C(c2cc(OC)c(OC)c(OC)c2)n2cncn2)cc1O (stereo not given)	PC-3 prostate	no
COc1ccc(S(=O)(=O)Oc2ccc(-c3sc4cc(OS(=O)(=O)c5ccc(OC)cc5)ccc4c3C(=O)c3ccc(OCCN4CCCCC4)cc3)cc2)cc1	PC-3 prostate	no
O=c1[nH]c(CN2CCN(c3ccccc3)CC2)nc2c(Br)cc(Br)cc12	PC-3 prostate	no
O=C(Nc1cccc(Cn2c(=O)[nH]c3ccc(Oc4ncccn4)cc3c2=O)c1)c1cccc(Cl)c1	PC-3 prostate	no
Oc1ccc(Cc2ccc(O)c3ncccc23)c2cccnc12	PC-3 prostate	yes
COc1ccc(C(=O)/C=C/Nc2cc(-c3ccccc3)nn2-c2ccccc2)cc1	PC-3 prostate	no
CN(Cc1ccccc1)c1nc(Cl)c(C2CC(c3ccc(Cl)cc3)=NN2c2cc(Cl)cc(Cl)c2)s1 (stereo not given)	PC-3 prostate	no
CC(=O)O[C@H]1C[C@@]2(C)[C@@H](C[C@@H](O)[C@H]3[C@@]4(C)CC[C@H](N5CCCC5)[C@@H](C)[C@@H]4CC[C@@]32C)/C1=C(\CCC=C(C)C)C(=O)O	PC-3 prostate	no
CCOC(=O)CC1C(CNC(=O)NC)OC(n2cnc3c(NC(=O)Nc4ccccc4)ncnc32)C1O[Si](C)(C)C(C)(C)C (stereo not given)	PC-3 prostate	no
Cc1ccccc1NC(=O)c1sc2nc3c(cc2c1N)CCCC3	PC-3 prostate	no
COc1cc(OCc2cccc(-c3ccccc3)c2C)cc(OC)c1CN1CCCCC1C(=O)NCCOCCOCCN (stereo not given)	PC-3 prostate	no
COc1cccc2cc(N(C)c3nc(C)nc4c3CCC4)ccc12	PC-3 prostate	yes
C#C[C@]1(O)CC[C@H]2[C@@H]3CC=C4c5sc(-c6cccc(C)c6)nc5CC[C@]4(C)[C@H]3CC[C@@]21C	PC-3 prostate	no
COc1ccc(-c2cc(-c3ccc(Nc4nc(Nc5ccc(Cl)cc5)nc(Nc5ccc(Cl)cc5)n4)cc3)no2)cc1	PC-3 prostate	no
CC(C)(C)n1cc(-c2ccnc(NCCNS(=O)(=O)c3ccc(Br)cc3)c2)c(-c2cccc(O)c2)n1	PC-3 prostate	no
CN(C)c1ccc(/C=N/NC(=O)CSc2nc3sc4c(c3c(=O)n2-c2ccccc2)CCCCC4)cc1	PC-3 prostate	yes
Nc1ncc(-c2ccc3ncnc(N4CCc5cc(F)c(Cl)cc54)c3c2)cn1	PC-3 prostate	no
COc1ccc(NC(=O)c2ccc(Cl)cc2Cl)cc1	PC-3 prostate	no
COc1cc(C2CC(c3cccc(Nc4ccncc4)c3)=Nc3c(N)ncnc3N2)cc(OC)c1OC (stereo not given)	PC-3 prostate	no
O=C(Nc1ccc(Cl)cc1)C1=NCCCCN1	PC-3 prostate	no
Cc1ccc(-c2nn(CC(=O)N3CCOCC3)c(N)c2C#N)cc1	PC-3 prostate	no
CC(=O)OCCOc1cc(Cl)c(Cl)cc1Cl	PC-3 prostate	no
Cc1nc2sc(C(=O)Nc3ccccc3)c(N)c2cc1C(O)c1ccccc1 (stereo not given)	PC-3 prostate	no
Oc1ccc(C2OCCO2)c2cccnc12	PC-3 prostate	no
Cc1cc2c(C(C)C)c(O)c(O)c(/C=N/O)c2c(O)c1-c1c(C)cc2c(C(C)C)c(O)c(O)c(/C=N/O)c2c1O	PC-3 prostate	no
CC(C)=CCC[C@](C)(O)C1CC[C@]2(C)[C@@H]1CC[C@@H]1[C@@]3(C)CC/C(=N\OCCC#N)C(C)(C)[C@@H]3CC[C@]12C (stereo not given in full)	PC-3 prostate	no
C#CCOc1ccc(C2=NN(CCCC)C3N=C(Cl)c4ncn(CCCC)c4N23)cc1OCC#C (stereo not given)	PC-3 prostate	no
COc1ccc(-n2c(=O)n(-c3ccc(-c4nc5ccc(F)cc5s4)cc3)c(=O)c3cccnc32)cc1	PC-3 prostate	no
C=C(C)[C@@H]1CC[C@]2(COCCCNCCCN)CC[C@]3(C)[C@H](CC[C@@H]4[C@@]5(C)CC[C@H](OCCCN)C(C)(C)[C@@H]5CC[C@]43C)[C@@H]12	PC-3 prostate	yes
Cc1ccc(S(=O)(=O)c2nc(-c3ccccc3)oc2S(C)=O)cc1 (stereo not given)	PC-3 prostate	no
CN(C)C(=O)OCc1ccc2c(Cl)cc(Cl)c(O)c2n1	PC-3 prostate	no
Cc1c(C)c2c(c(C)c1OC(=O)CCC(=O)[O-])CCC(C)(CCCCCCCCCCC[P+](c1ccccc1)(c1ccccc1)c1ccccc1)O2 (stereo not given)	PC-3 prostate	yes
COc1cc(-c2c(-c3ccccc3)c[nH]c2C(=O)NCCCO)c(OC)c2c1OCO2	PC-3 prostate	no
O=C1CCc2c(sc3[nH]c(=S)n(-c4cc(C(F)(F)F)cc(C(F)(F)F)c4)c(=O)c23)C1	PC-3 prostate	yes
